Answer each item with its documented growth.
Test system: NCI-H460 lung
test: NCI-60 one-dose screen, 48 h (100 = growth as untreated, 0 = no growth, -100 = all killed)
assaySetup: 10 µM
The panel holds about 83,000 compounds, 20% with a hit somewhere; the sample as a whole holds those more often.
Write it as a number; the unit % goes unstated.

For the compound "CN(C)c1ccc(/C=C/c2nc3ccccc3c(=O)n2CC(=O)Nc2ccccc2)cc1" , what growth is on record? 16.8

Try this compound too: "CN1CCN(Cc2ccc(NC(=O)c3cncc(C#Cc4cnc5ccc(N[C@H]6CCOC6)nn45)c3)cc2C(F)(F)F)CC1" -76.1

Try this compound too: O=C(Cc1ccc2c(c1)CN(C1CCC(=O)NC1=O)C2=O)NCc1cccc2ccccc12 (stereo not given) 45.7

Try this compound too: "O=C(Cn1cc(CSc2nnc3oc4ccccc4n23)nn1)Nc1ccc(Br)cc1" 101

Try this compound too: "C=C1CC[C@H](C(=C)C)[C@H]2C=C(C)C(=O)C3=C(C(=O)[C@@](C)(O)C3)[C@H]12" -45.6
